pIC50 values, listed per item
target: GDP-loaded KRAS-G12C (Homo sapiens, UniProt P01116, G12C); assay: KRAS (GDP) biochemical TR-FRET probe displacement assay, G12C; details: 2 hours at room temperature
Sequence (P01116 1-188 isoform P01116-2 G12C): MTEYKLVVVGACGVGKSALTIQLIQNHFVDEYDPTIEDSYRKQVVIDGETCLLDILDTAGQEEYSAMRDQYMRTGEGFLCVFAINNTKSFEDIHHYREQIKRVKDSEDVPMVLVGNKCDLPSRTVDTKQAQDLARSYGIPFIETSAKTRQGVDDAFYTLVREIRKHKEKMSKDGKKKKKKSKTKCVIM
pIC50: −log10 of the molar value.

MOLECULE	LIMIT_OPERATOR	pIC50
C#Cc1c(F)ccc2cc(N)nc(-c3c(Cl)cc4c(N5CC6(F)CCC(F)(C5)N6)nc(OC[C@@]56CCCN5C[C@H](F)C6)nc4c3F)c12	<	7.00
N#Cc1c(N)sc2c(F)ccc(-c3c(Cl)cc4c(N5CC6(F)CCC(F)(C5)N6)nc(OC[C@@]56CCCN5C[C@H](F)C6)nc4c3F)c12 [Example 7-3]	=	8.77
C#Cc1c(F)ccc2cc(O)cc(-c3c(F)cc4c(N5CC6(F)CCC(F)(C5)N6)nc(OC[C@@]56CCCN5C[C@H](F)C6)nc4c3F)c12 (single isomer, unassigned)	=	9.77

----------
biological target: GDP-loaded KRAS-G12D (Homo sapiens, UniProt P01116, G12D); assay: KRAS (GDP) biochemical TR-FRET probe displacement assay, G12D; details: 2 hours at room temperature
Sequence (P01116 1-188 isoform P01116-2 G12D): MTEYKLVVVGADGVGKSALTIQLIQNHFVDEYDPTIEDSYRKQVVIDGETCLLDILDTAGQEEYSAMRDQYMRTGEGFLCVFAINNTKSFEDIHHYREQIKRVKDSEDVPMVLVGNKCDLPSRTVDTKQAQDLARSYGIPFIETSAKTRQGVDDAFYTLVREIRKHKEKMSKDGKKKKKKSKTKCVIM
ENDPOINT_LABEL: IC50

COMPOUND	STUDY_SYSTEM	RESULT
C#Cc1c(F)ccc2cc(N)nc(-c3c(Cl)cc4c(N5CC6(F)CCC(F)(C5)N6)nc(OC[C@@]56CCCN5C[C@H](F)C6)nc4c3F)c12	GDP-loaded KRAS-G12D (Homo sapiens, UniProt P01116, G12D)	> 100 nM
Nc1cc2ccc(F)cc2c(-c2c(Cl)cc3c(N4CC5(F)CCC(F)(C4)N5)nc(OC[C@@]45CCCN4C[C@H](F)C5)nc3c2F)n1	GDP-loaded KRAS-G12D (Homo sapiens, UniProt P01116, G12D)	> 100 nM
Cc1cc(-c2ncc3c(N4CC5(F)CCC(F)(C4)N5)nc(OC[C@@]45CCCN4C[C@H](F)C5)nc3c2F)c2cccnc2c1N	GDP-loaded KRAS-G12D (Homo sapiens, UniProt P01116, G12D)	> 100 nM
Cc1cc(N)nc(-c2c(F)cc3c(N4CC5(F)CCC(F)(C4)N5)nc(OC[C@@]45CCCN4C[C@H](F)C5)nc3c2F)c1C(F)(F)F	GDP-loaded KRAS-G12D (Homo sapiens, UniProt P01116, G12D)	> 100 nM
C#Cc1c(F)ccc2cccc(-c3ncc4c(N5CC6(F)CCC(F)(C5)N6)nc(OC[C@@]56CCCN5C[C@H](F)C6)nc4c3F)c12	GDP-loaded KRAS-G12D (Homo sapiens, UniProt P01116, G12D)	≥ 100 nM
N#Cc1c(N)sc2c(F)ccc(-c3c(Cl)cc4c(N5CC6(F)CCC(F)(C5)N6)nc(OC[C@@]56CCCN5C[C@H](F)C6)nc4c3F)c12 (single isomer, unassigned) [Example 8-2]	GDP-loaded KRAS-G12D (Homo sapiens, UniProt P01116, G12D)	43 nM
C#Cc1c(F)ccc2cc(O)cc(-c3c(F)cc4c(N5CC6(F)CCC(F)(C5)N6)nc(OC[C@@]56CCCN5C[C@H](F)C6)nc4c3F)c12 (single isomer, unassigned) [Example 9-2]	GDP-loaded KRAS-G12D (Homo sapiens, UniProt P01116, G12D)	97.8 nM
N#Cc1c(N)sc2c(F)ccc(-c3c(Cl)cc4c(N5CC6(F)CCC(F)(C5)N6)nc(OC[C@@]56CCCN5C[C@H](F)C6)nc4c3F)c12 (single isomer, unassigned) [Example 8-1]	GDP-loaded KRAS-G12D (Homo sapiens, UniProt P01116, G12D)	1.46 nM
C#Cc1c(F)ccc2cc(O)cc(-c3ncc4c(N5CC6(F)CCC(F)(C5)N6)nc(OC[C@@]56CCCN5[C@H](COc5cc(C(F)(F)F)ncn5)CC6)nc4c3F)c12	GDP-loaded KRAS-G12D (Homo sapiens, UniProt P01116, G12D)	0.55 nM

----------
pIC50: −log10 of the molar value.
What follows is a collection of pIC50 values obtained with GDP-loaded wild-type KRAS (WT) (Homo sapiens, UniProt P01116).
Sequence (P01116 1-188 isoform P01116-2): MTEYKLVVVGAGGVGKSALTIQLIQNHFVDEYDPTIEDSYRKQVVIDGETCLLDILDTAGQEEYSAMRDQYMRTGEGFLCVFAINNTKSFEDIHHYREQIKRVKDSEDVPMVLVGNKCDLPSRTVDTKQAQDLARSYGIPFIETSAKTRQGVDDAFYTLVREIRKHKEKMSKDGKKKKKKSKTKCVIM
ENDPOINT_LABEL: pIC50

CPD_SMILES	LIMIT_OPERATOR	RESULT_NUMBER
C#Cc1c(F)ccc2cc(O)cc(-c3ncc4c(N5CC6(F)CCC(F)(C5)N6)nc(OC[C@@H]5CC[C@]6(COc7cc(C(F)(F)F)ncn7)CCCN56)nc4c3F)c12	=	7.91
C#Cc1c(F)ccc2cc(N)nc(-c3c(Cl)cc4c(N5CC6(F)CCC(F)(C5)N6)nc(OC[C@@]56CCCN5C[C@H](F)C6)nc4c3F)c12	<	7.00
C#Cc1c(F)ccc2cc(O)cc(-c3ncc4c(N5CC6(F)CCC(F)(C5)N6)nc(OC[C@@]56CCCN5[C@H](COc5cc(C(F)(F)F)ncn5)CC6)nc4c3F)c12	=	9.54
C#Cc1c(F)ccc2cc(O)cc(-c3c(Cl)cc4c(N5CC6(F)CCC(F)(C5)N6)nc(OC[C@@]56CCCN5C[C@H](F)C6)nc4c3F)c12	=	8.23

----------
target: GDP-loaded KRAS-G12C (Homo sapiens, UniProt P01116, G12C); experiment: KRAS (GDP) biochemical TR-FRET probe displacement assay, G12C; settings: 2 hours at room temperature

CPD_SMILES	IC50
Cc1cc(-c2c(F)cc3c(N4CC5(F)CCC(F)(C4)N5)nc(OC[C@@]45CCCN4C[C@H](F)C5)nc3c2F)c2cccnc2c1N	> 100 nM
Cc1cc(-c2c(Cl)cc3c(N4CC5(F)CCC(F)(C4)N5)nc(OC[C@@]45CCCN4C[C@H](F)C5)nc3c2F)c2cccnc2c1N	> 100 nM
Fc1ccc2nc(C(F)(F)F)c(-c3c(F)cc4c(N5CC6(F)CCC(F)(C5)N6)nc(OC[C@@]56CCCN5C[C@H](F)C6)nc4c3F)n2c1	> 100 nM
Cc1cc(N)nc(-c2c(Cl)cc3c(N4CC5(F)CCC(F)(C4)N5)nc(OC[C@@]45CCCN4C[C@H](F)C5)nc3c2F)c1C(F)(F)F	> 100 nM
Fc1cc2c(N3CC4(F)CCC(F)(C3)N4)nc(OC[C@@]34CCCN3C[C@H](F)C4)nc2c(F)c1-c1csc2ncnc(Cl)c12	> 100 nM
Nc1cc2ccc(F)cc2c(-c2c(Cl)cc3c(N4CC5(F)CCC(F)(C4)N5)nc(OC[C@@]45CCCN4C[C@H](F)C5)nc3c2F)n1	> 100 nM

----------
pIC50 values, listed per item
target: GDP-loaded KRAS-G12D (Homo sapiens, UniProt P01116, G12D); assay: KRAS (GDP) biochemical TR-FRET probe displacement assay, G12D; conditions: 2 hours at room temperature
pIC50: −log10 of the molar value.

COMPOUND	pIC50
N#Cc1c(N)sc2c(F)ccc(-c3c(Cl)cc4c(N5CC6(F)CCC(F)(C5)N6)nc(OC[C@@]56CCCN5C[C@H](F)C6)nc4c3F)c12 [Example 7-3]	7.90
C#Cc1c(F)ccc2cc(O)cc(-c3ncc4c(N5CC6(F)CCC(F)(C5)N6)nc(OC[C@@H]5CC[C@]6(COc7cc(C(F)(F)F)ncn7)CCCN56)nc4c3F)c12 [Example 2-11]	7.94
C#Cc1c(F)ccc2cc(N)cc(-c3ncc4c(N5CC6(F)CCC(F)(C5)N6)nc(OC[C@@]56CCCN5[C@H](COc5cc(C(F)(F)F)ncn5)CC6)nc4c3F)c12 [Example 5-2]	7.99

----------
target: GDP-loaded KRAS-G12D (Homo sapiens, UniProt P01116, G12D); test: KRAS (GDP) biochemical TR-FRET probe displacement assay, G12D; conditions: 2 hours at room temperature

CPD_SMILES	IC50
Cc1cc(N)nc(-c2c(Cl)cc3c(N4CC5(F)CCC(F)(C4)N5)nc(OC[C@@]45CCCN4C[C@H](F)C5)nc3c2F)c1C(F)(F)F	> 100 nM
Nc1nc2c(-c3c(Cl)cc4c(N5CC6(F)CCC(F)(C5)N6)nc(OC[C@@]56CCCN5C[C@H](F)C6)nc4c3F)ccc(F)c2s1	> 100 nM
Cc1cc(-c2c(Cl)cc3c(N4CC5(F)CCC(F)(C4)N5)nc(OC[C@@]45CCCN4C[C@H](F)C5)nc3c2F)c2cccnc2c1N	> 100 nM

----------
system: cellular pERK in MIA-PaCa-2 (KRAS-G12C) cell-line; experiment: Cell based pERK assay, MIA-PaCa-2; conditions: Homo sapiens; MIA-PaCa-2 (KRAS-G12C) cells, 2 hours compound incubation, HTRF Phospho-ERK1/2; read-out: MIAPaCa2 pERK EC50
EC50 values, listed per item
ENDPOINT_LABEL: EC50 (nM)

CPD_SMILES	ENDPOINT_LABEL	READOUT_UNIT	LIMIT_OPERATOR	RESULT_NUMBER
C#Cc1c(F)ccc2cc(O)cc(-c3ncc4c(N5CC6(F)CCC(F)(C5)N6)nc(OC[C@@]56CCCN5[C@H](COc5cc(C(F)(F)F)ncn5)CC6)nc4c3F)c12	EC50	nM	=	0.19
Fc1cc2c(N3CC4(F)CCC(F)(C3)N4)nc(OC[C@@]34CCCN3C[C@H](F)C4)nc2c(F)c1-c1csc2ncnc(Cl)c12	EC50	nM	>	1000
C#Cc1c(F)ccc2cc(N)cc(-c3ncc4c(N5CC6(F)CCC(F)(C5)N6)nc(OC[C@@]56CCCN5C[C@H](F)C6)nc4c3F)c12	EC50	nM	=	4.99
C#Cc1c(F)ccc2cc(N)cc(-c3ncc4c(N5CC6(F)CCC(F)(C5)N6)nc(OCC56CCCN5CCC6)nc4c3F)c12	EC50	nM	=	15.6
Cc1cc(-c2ncc3c(N4CC5(F)CCC(F)(C4)N5)nc(OC[C@@]45CCCN4C[C@H](F)C5)nc3c2F)c2cccnc2c1N	EC50	nM	>	1000
C#Cc1c(F)ccc2cc(O)cc(-c3ncc4c(N5C[C@]6(F)CC[C@](F)(C5)N6)nc(OC[C@@]56CCCN5C[C@H](F)C6)nc4c3F)c12	EC50	nM	=	0.16
Cc1cc(N)nc(-c2c(Cl)cc3c(N4CC5(F)CCC(F)(C4)N5)nc(OC[C@@]45CCCN4C[C@H](F)C5)nc3c2F)c1C(F)(F)F	EC50	nM	=	233
C#Cc1c(F)ccc2cc(N)cc(-c3ncc4c(N5CC6(F)CCC(F)(C5)N6)nc(OC[C@@]56CCCN5[C@H](COc5cc(C(F)(F)F)ncn5)CC6)nc4c3F)c12	EC50	nM	=	3.24
C#Cc1c(F)ccc2cc(N)cc(-c3c(F)cc4c(N5CC6(F)CCC(F)(C5)N6)nc(OCC56CCCN5CCC6)nc4c3F)c12	EC50	nM	=	8.62
C#Cc1c(F)ccc2cc(N)nc(-c3c(Cl)cc4c(N5CC6(F)CCC(F)(C5)N6)nc(OC[C@@]56CCCN5C[C@H](F)C6)nc4c3F)c12	EC50	nM	=	179
